target: Fyn (UniProt P06241); assay: phosphorylation enrichment, bacterial display (enrichment ratio); higher = better substrate or ligand; peptides without Tyr show the background;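 note: 11-residue human phosphosite peptides and single-mutation variants displayed on the E. coli surface, counted by deep sequencing, each peptide's frequency after selection divided by its frequency in the unselected input library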;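 note: frequency after pTyr selection over input frequency; kinase dosed for 20-30% of maximal phosphorylation in three min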
Sequence (P06241 whole entry, looked up): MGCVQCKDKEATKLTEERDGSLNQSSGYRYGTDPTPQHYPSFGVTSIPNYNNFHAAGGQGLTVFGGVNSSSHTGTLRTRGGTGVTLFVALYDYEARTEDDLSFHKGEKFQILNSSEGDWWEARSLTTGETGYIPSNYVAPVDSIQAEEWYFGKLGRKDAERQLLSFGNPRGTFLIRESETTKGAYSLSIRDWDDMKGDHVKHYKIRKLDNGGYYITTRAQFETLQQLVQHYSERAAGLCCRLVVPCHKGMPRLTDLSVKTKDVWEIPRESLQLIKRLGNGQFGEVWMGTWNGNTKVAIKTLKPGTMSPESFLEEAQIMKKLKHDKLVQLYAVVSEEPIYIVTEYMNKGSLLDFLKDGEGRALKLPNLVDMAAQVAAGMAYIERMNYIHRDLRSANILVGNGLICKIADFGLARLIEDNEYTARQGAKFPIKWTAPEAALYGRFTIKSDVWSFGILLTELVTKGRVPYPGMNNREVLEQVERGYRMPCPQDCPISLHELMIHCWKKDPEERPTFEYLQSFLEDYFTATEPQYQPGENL
Lab note: anything with phosphorylation enrichment at or over 0.5 counts as yes; the rest go in no.

These recorded examples may help you get a feel for the data.
-- ask # bool: phosphorylation enrichment of NPEACYQRLKK [TK2_Y190_T188A] >= 0.5
-- reply no

-- ask # bool: phosphorylation enrichment of DAHFTYSRFPW [LY75_Y888_D884A_YF] >= 0.5
-- reply yes

Further cases:
-- ask # bool: phosphorylation enrichment of TRSYKCLLLSM [NF1_Y491_Y491C] >= 0.5
-- reply no

-- ask # bool: phosphorylation enrichment of KINKMYSDHAM >= 0.5
-- reply no

-- ask # bool: phosphorylation enrichment of HLEKKYVRRDS [CSF1R_Y708] >= 0.5
-- reply yes

-- ask # bool: phosphorylation enrichment of RAILNYIASKF [GSTA3_Y74_YF] >= 0.5
-- reply yes

-- ask # bool: phosphorylation enrichment of TFRPPYFHRDC [HGD_Y333_N337D_YF] >= 0.5
-- reply no

-- ask # bool: phosphorylation enrichment of NAPNSYGRRPT [CDKN2A_Y44_I49T] >= 0.5
-- reply no

-- ask # bool: phosphorylation enrichment of VSSPKYGSDDE [TMCC2_Y473] >= 0.5
-- reply yes

-- ask # bool: phosphorylation enrichment of VPLATYMRIYK [RPL21_Y30] >= 0.5
-- reply no
